Biological target: Biotinylated hPD-L1-Fc-Avi (human, UniProt Q9NZQ7 19-238)
Sequence (Q9NZQ7 19-238 limits assumed): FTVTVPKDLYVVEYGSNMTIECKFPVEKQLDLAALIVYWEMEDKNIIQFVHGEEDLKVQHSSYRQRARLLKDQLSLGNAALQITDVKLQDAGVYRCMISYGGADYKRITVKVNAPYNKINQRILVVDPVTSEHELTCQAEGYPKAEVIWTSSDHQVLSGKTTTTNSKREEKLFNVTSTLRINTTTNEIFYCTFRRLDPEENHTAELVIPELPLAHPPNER
Assay: cell-based RBA, blocking of hPD-L1-Fc-Avi binding to HEK293 hCD80 cells
Each entry below lists one item and its recorded EC50 value.
Please respond with the number in nM and leave the unit unwritten.

Completed entries (count: 2):
Fcab FS17-33-289 (designed binder) TCPPCPAPELLGGPSVFLFPPKPKDTLMISRTPEVTCVVVDVSHEDPEVKFNWYVDGVEVHNAKTKPREEQYNSTYRVVSVLTVLHQDWLNGKEYKCKVSNKALPAPIEKTISKAKGQPREPQVYTLPPSRDESGYWVSLTCLVKGFYPSDIVVEWESNGEPQYWAKTTPPVLDSDGSFFLYSKLTVSNWRWQLDDFSCSVMHEALHNHYTQKSLSLSPGK :: 9.2
Fcab FS17-33-334 (designed binder) TCPPCPAPELLGGPSVFLFPPKPKDTLMISRTPEVTCVVVDVSHEDPEVKFNWYVDGVEVHNAKTKPREEQYNSTYRVVSVLTVLHQDWLNGKEYKCKVSNKALPAPIEKTISKAKGQPREPQVYTLPPSRDESGYWVSLTCLVKGFYPSDIAVEWESNGEPQYWAKTTPPVLDSDGSFFLYSKLTVSNWRWQLDDFSCSVMHEALHNHYTQKSLSLSPGK :: 0.55

Sure, the documented EC50 for Fcab FS17-33-116 (designed binder) TCPPCPAPELLGGPSVFLFPPKPKDTLMISRTPEVTCVVVDVSHEDPEVKFNWYVDGVEVHNAKTKPREEQYNSTYRVVSVLTVLHQDWLNGKEYKCKVSNKALPAPIEKTISKAKGQPREPQVYTLPPSRDESGYWVSLTCLVKGFYPSDIVVEWESNGEPQYWAKTTPPVLDSDGSFFLYSKLTVSNWRWQMDDFSCSVMHEALHNHYTQKSLSLSPGK is 8.4
